- Test system: PC3/hPRLR cells
- Method summary: Cell viability (cell kill) assay
- Type: cell-based, human
- Run parameters: PC3/PRLR; Table 11; 3 days

Molecule	% Kill (%)
H1H6959N2-DM1 (conjugate) VH: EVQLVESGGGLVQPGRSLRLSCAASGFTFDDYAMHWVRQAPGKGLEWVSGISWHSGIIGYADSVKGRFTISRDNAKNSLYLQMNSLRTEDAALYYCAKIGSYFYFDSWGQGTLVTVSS VL: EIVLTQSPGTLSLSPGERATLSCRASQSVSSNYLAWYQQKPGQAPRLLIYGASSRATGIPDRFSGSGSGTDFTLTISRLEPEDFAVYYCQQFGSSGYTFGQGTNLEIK	82
H1H6762P-DM1 (conjugate) VH: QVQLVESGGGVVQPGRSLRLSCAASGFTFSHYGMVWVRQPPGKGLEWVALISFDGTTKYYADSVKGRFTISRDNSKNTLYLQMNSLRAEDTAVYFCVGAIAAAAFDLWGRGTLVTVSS VL: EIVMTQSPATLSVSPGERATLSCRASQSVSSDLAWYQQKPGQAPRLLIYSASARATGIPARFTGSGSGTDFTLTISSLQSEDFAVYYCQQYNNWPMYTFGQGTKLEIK	66
H1H6953N-DM1 (conjugate) VH: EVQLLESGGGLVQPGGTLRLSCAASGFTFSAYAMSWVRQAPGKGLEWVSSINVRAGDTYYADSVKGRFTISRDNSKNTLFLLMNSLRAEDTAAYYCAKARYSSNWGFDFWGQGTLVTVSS VL: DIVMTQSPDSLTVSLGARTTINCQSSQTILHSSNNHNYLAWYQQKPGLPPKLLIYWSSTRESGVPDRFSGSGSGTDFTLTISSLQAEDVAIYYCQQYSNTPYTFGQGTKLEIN	67
